Data origin, for the record: ChEMBL document CHEMBL4831492

Tested on: Mycobacterium kansasii
Experiment: Antimycobacterial activity against drug resistant Mycobacterium kansasii 6509/96 assessed as minimal inhibitory concentration required for complete inhibition of mycobacterial growth incubated for 14 days
Type: functional
Details: 6509/96, 336 h, time 14 day
assay-readout: log10 MIC (log10 of the value in µM)
Log scale reminder: MIC in µM, then log10 taken.

Given `C/C(=N\NC(=O)c1ccncc1)C(=O)Nc1ccc(F)c(F)c1` , state its recorded log10 MIC.
0.60

Given `C/C(=N\NC(=O)c1ccncc1)C(=O)Nc1cccc(I)c1` , state its recorded log10 MIC.
0.90

Given `C/C(=N\NC(=O)c1ccncc1)C(=O)Nc1cc(C(F)(F)F)cc(C(F)(F)F)c1` , state its recorded log10 MIC.
1.51

Given `C/C(=N\NC(=O)c1ccncc1)C(=O)Nc1ccc(F)cc1` , state its recorded log10 MIC.
0.60

Given `C/C(=N\NC(=O)c1ccncc1)C(=O)Nc1cccc(C(F)(F)F)c1` , state its recorded log10 MIC.
0.60

Given `C/C(=N\NC(=O)c1ccncc1)C(=O)O` , state its recorded log10 MIC.
1.20

Given `C/C(=N\NC(=O)c1ccncc1)C(=O)Nc1ccc(Cl)cc1` , state its recorded log10 MIC.
0.90

Given `C/C(=N\NC(=O)c1ccncc1)C(=O)Nc1cccc(Br)c1` , state its recorded log10 MIC.
0.90

Given `C/C(=N\NC(=O)c1ccncc1)C(=O)Nc1ccc(C(F)(F)F)cc1` , state its recorded log10 MIC.
0.60

Given `C/C(=N\NC(=O)c1ccncc1)C(=O)Nc1cc(Cl)c(Cl)c(Cl)c1` , state its recorded log10 MIC.
1.20

Given `C/C(=N\NC(=O)c1ccncc1)C(=O)Nc1ccc(SC(F)(F)F)cc1` , state its recorded log10 MIC.
0.60

Given `C/C(=N\NC(=O)c1ccncc1)C(=O)Nc1ccc(OC(F)F)cc1` , state its recorded log10 MIC.
0.60

Given `C/C(=N\NC(=O)c1ccncc1)C(=O)Nc1ccc(Cl)c(Cl)c1` , state its recorded log10 MIC.
0.90

Given `C/C(=N\NC(=O)c1ccncc1)C(=O)Nc1cc(Cl)cc(Cl)c1` , state its recorded log10 MIC.
1.20

Given `NNC(=O)c1ccncc1` , state its recorded log10 MIC.
0.90

Given `C/C(=N\NC(=O)c1ccncc1)C(=O)Nc1ccc(OC(F)(F)F)cc1` , state its recorded log10 MIC.
0.30

Given `C/C(=N\NC(=O)c1ccncc1)C(=O)Nc1ccc(I)cc1` , state its recorded log10 MIC.
0.60

Given `C/C(=N\NC(=O)c1ccncc1)C(=O)Nc1cccc(OC(F)(F)F)c1` , state its recorded log10 MIC.
0.90

Given `C/C(=N\NC(=O)c1ccncc1)C(=O)Nc1ccc(Br)cc1` , state its recorded log10 MIC.
0.90

Given `C/C(=N\NC(=O)c1ccncc1)C(=O)Nc1cccc(Cl)c1` , state its recorded log10 MIC.
0.30

Given `C/C(=N\NC(=O)c1ccncc1)C(=O)Nc1cccc(F)c1` , state its recorded log10 MIC.
0.60

----------
Assignment: determine reported MIC for the given compounds.
System: Mycobacterium kansasii
Assay: Antimycobacterial activity against drug resistant Mycobacterium kansasii 235/80 assessed as minimal inhibitory concentration required for complete inhibition of mycobacterial growth incubated for 14 days
Assay type: functional
Details: 235/80, 336 h, time 14 day

Given `C/C(=N\NC(=O)c1ccncc1)C(=O)Nc1ccc(Cl)c(Cl)c1` , state its recorded MIC.
> 250 µM

Given `C/C(=N\NC(=O)c1ccncc1)C(=O)Nc1ccc(F)cc1` , state its recorded MIC.
125 µM

Given `C/C(=N\NC(=O)c1ccncc1)C(=O)Nc1cc(Cl)c(Cl)c(Cl)c1` , state its recorded MIC.
125 µM

Given `C/C(=N\NC(=O)c1ccncc1)C(=O)Nc1ccc(Br)cc1` , state its recorded MIC.
16 µM

Given `C/C(=N\NC(=O)c1ccncc1)C(=O)Nc1ccc(OC(F)(F)F)cc1` , state its recorded MIC.
8 µM

Given `C/C(=N\NC(=O)c1ccncc1)C(=O)Nc1ccc(Cl)cc1` , state its recorded MIC.
16 µM

Given `C/C(=N\NC(=O)c1ccncc1)C(=O)Nc1ccc(I)cc1` , state its recorded MIC.
8 µM

Given `C/C(=N\NC(=O)c1ccncc1)C(=O)Nc1ccc(C(F)(F)F)cc1` , state its recorded MIC.
16 µM

Given `C/C(=N\NC(=O)c1ccncc1)C(=O)Nc1cc(Cl)cc(Cl)c1` , state its recorded MIC.
> 250 µM

Given C/C(=N\NC(=O)c1ccncc1)C(=O)O [PYRUVIC ACID ISONIAZID] , state its recorded MIC.
16 µM

Given NNC(=O)c1ccncc1 [ISONIAZID] , state its recorded MIC.
> 250 µM

----------
Assignment: determine reported selectivity ratio for the given compounds.
Experiment: Selectivity index, ratio of CC50 for cytotoxicity against human HepG2 cells to MIC for antimycobacterial activity against drug susceptible Mycobacterium tuberculosis H37Rv
Assay type: toxicity, cell-based
Details: read-out: Selectivity Index

Given `C/C(=N\NC(=O)c1ccncc1)C(=O)Nc1ccc(Br)cc1` , state its recorded selectivity ratio.
> 400

Given `C/C(=N\NC(=O)c1ccncc1)C(=O)Nc1cccc(Cl)c1` , state its recorded selectivity ratio.
> 400

Given `C/C(=N\NC(=O)c1ccncc1)C(=O)Nc1ccc(Cl)c(Cl)c1` , state its recorded selectivity ratio.
> 833

Given `C/C(=N\NC(=O)c1ccncc1)C(=O)Nc1ccc(F)cc1` , state its recorded selectivity ratio.
> 200
